Target: T1, 4H_BCR
T1 chain: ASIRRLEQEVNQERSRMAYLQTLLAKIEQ
Experiment: two-hybrid library CCmax;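 note: natural log of median RNA to DNA barcode read ratio; higher means stronger binding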
Details: mean of both orientations
Observation Type: interaction score

(1) DKIAALKAKNAALKAEIAALKAENAALKG [4H3020-AA]
(2) DEIAALEAKNAALKAENAALEAEIAALEG [4H465-AA]
Decide: 1 or 2 , by lowest recorded interaction score. Respond with the label that goes with your answer.
1

(P) DKNAALEAKIAALEAKIAALEAKIAALEG [4H3365-AA]
(Q) DKIAALKAEIAALEAKNAALKAKIAALKG [4H2622-AA]
Please compare: P and Q . Report which one has the smaller interaction score value. Answer format: the label of the selected item.
P
(P: -1.47, Q: -0.274)

(I) DEIAALEAENAALEAEIAALKAENAALKG [4H140-AA]
(II) DKIAALKAENAALEAKIAALKAENAALKG [4H2732-AA]
I would appreciate it if you could say which entry, I or II , has the lower interaction score value. Indicate which entry you chose by stating its label.
II
(II: -2.17, I: -1.18)

(a) DKNAALKAEIAALEAKIAALKAEIAALEG [4H3625-AA]
(b) DEIAALEAKNAALKAKNAALKAKIAALKG [4H510-AA]
Compare reported interaction score values for a and b . Which is lower? Pick one and reply with its label.
b
